What Potency EC50 (nM), ferroportin-GFP internalization/degradation was measured for each of the following?
Molecular target: T1, human ferroportin (SLC40A1) fused in frame with GFP, stably expressed in HEK293 cells (human, UniProt Q9NP59 1-571)
T1 sequence (looked up): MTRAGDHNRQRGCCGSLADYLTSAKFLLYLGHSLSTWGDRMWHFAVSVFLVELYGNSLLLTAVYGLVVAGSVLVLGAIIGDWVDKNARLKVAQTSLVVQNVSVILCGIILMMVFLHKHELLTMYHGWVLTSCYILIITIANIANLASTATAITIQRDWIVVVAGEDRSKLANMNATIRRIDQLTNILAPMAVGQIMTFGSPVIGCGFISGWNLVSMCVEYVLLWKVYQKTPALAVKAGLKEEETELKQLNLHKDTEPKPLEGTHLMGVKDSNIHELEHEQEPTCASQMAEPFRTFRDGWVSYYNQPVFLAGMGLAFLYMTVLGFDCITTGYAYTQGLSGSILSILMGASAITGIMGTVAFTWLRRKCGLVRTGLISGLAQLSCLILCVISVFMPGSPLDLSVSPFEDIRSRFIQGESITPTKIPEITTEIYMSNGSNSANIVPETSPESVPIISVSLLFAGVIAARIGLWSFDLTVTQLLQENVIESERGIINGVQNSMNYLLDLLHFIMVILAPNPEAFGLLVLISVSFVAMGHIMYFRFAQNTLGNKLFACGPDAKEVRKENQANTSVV
Assay: cell-based or functional assay
Numbered stars: 1 amine (or outer) side, 2 acyl side, 3 side chain; on linkers, the order of the positions; unused ones are H or OH. Bridge positions count the residues as written; N and C are the ends. Square brackets hold non-standard residues; d marks the D form. Side chains are listed from the residue outwards. Ends that are not written are not given here. * marks the point of attachment. Ida = iminodiacetic acid, O=C(CN(CC(=O)[*:3])[*:1])[*:2]; γGlu = O=C(O)[C@H](CCC(=O)[*:2])N[*:1]; Palmitoyl = CCCCCCCCCCCCCCCC(=O)*; dapa = diaminopropionic acid; Isovaleryl = CC(C)CC(=O)*

Query :: Consider the binder shown here: H-DTHFPIAIFICI-NH2 [Hy-DTHFPIAIFICI-NH2] What is its recorded Potency EC50 (nM), ferroportin-GFP internalization/degradation?
Result :: > 10000 nM

Query :: Consider the binder shown here: Isovaleryl-DTHFPCIKFEPK([γGlu-Palmitoyl])SKGCK-NH2 (not fully specified (bridges); cysteine pairing not given here) [Isovaleric acid-DTHFPCIKFEP-K(isoglu-Palm)-SKGCK-NH2] What is its recorded Potency EC50 (nM), ferroportin-GFP internalization/degradation?
Result :: 5 nM

Query :: Consider the binder shown here: [Ida]THFPCIKFEPRSKGWVCK(Ac)-NH2 (disulfide 6-18 (inferred)) [[Ida]-THFPCIKFEPRSKGWVC-K(Ac)-NH2] What is its recorded Potency EC50 (nM), ferroportin-GFP internalization/degradation?
Result :: 502 nM

Query :: Consider the binder shown here: H-DTHFPCIIFGPRSKGWNCK-NH2 (not fully specified (bridges); printed as Hy-DTHFPCIIFGPRSKGWNCK-NH2; cysteine pairing not given here) [Hy-DTHFPCIIFGPRSKGWNCK-NH2] What is its recorded Potency EC50 (nM), ferroportin-GFP internalization/degradation?
Result :: > 1000 nM

Query :: Consider the binder shown here: Isovaleryl-DTHFPCIK([dapa-Palmitoyl])FEPRSKGCK-NH2 (not fully specified (bridges); cysteine pairing not given here) [Isovaleric acid-DTHFPCI-K(dapa-Palm)-FEPRSKGCK-NH2] What is its recorded Potency EC50 (nM), ferroportin-GFP internalization/degradation?
Result :: 17 nM

Query :: Consider the binder shown here: Isovaleryl-ATHFPCIKFGPRSKGWVCK-NH2 (disulfide 6-18 (inferred)) [Isovaleric acid-ATHFPCIKFGPRSKGWVCK-NH2] What is its recorded Potency EC50 (nM), ferroportin-GFP internalization/degradation?
Result :: 60 nM

Query :: Consider the binder shown here: H-DTHFPCIEF-NH2 [Hy-DTHFPCIEF-NH2] What is its recorded Potency EC50 (nM), ferroportin-GFP internalization/degradation?
Result :: > 1000 nM

Query :: Consider the binder shown here: Isovaleryl-DTHFPCIIFEPRSKEWVCK-NH2 (disulfide 6-18 (inferred)) [Isovaleric acid-DTHFPCIIFEPRSKEWVCK-NH2] What is its recorded Potency EC50 (nM), ferroportin-GFP internalization/degradation?
Result :: 19 nM

Query :: Consider the binder shown here: Isovaleryl-DTHAPCIKFEPRSKEWECK-NH2 (not fully specified (bridges); cysteine pairing not given here) [Isovaleric acid-DTHAPCIKFEPRSKEWECK-NH2] What is its recorded Potency EC50 (nM), ferroportin-GFP internalization/degradation?
Result :: > 10000 nM

Query :: Consider the binder shown here: H-DTHFPCRIF-NH2 [Hy-DTHFPCRIF-NH2] What is its recorded Potency EC50 (nM), ferroportin-GFP internalization/degradation?
Result :: > 1000 nM

Query :: Consider the binder shown here: H-DTHFPCINFGPRSKGWVCK-NH2 (disulfide 6-18 (inferred)) [Hy-DTHFPCINFGPRSKGWVCK-NH2] What is its recorded Potency EC50 (nM), ferroportin-GFP internalization/degradation?
Result :: > 1000 nM
